# PROCEDURE_TEXT: SPD derivative UV-Vis spectral and chemical properties (Table 1)
# Type: physicochemical
# REPORTED_CONDITIONS: pH sensitive wavelength of SPD^−1
MEASURED_METRIC: λ1, nm (SPD^−1 form) (nm)

| MOLECULE | ASSAY_RESULT |
| --- | --- |
| Cc1cc(C2(c3cc(C)c(O)cc3C)OS(=O)(=O)c3ccccc32)c(C)cc1O [Xylenol Blue] | 436 |
| Cc1cc(O)c(C(C)C)cc1C1(c2cc(C(C)C)c(O)cc2C)OS(=O)(=O)c2ccccc21 [Thymol Blue] | 432 |
| O=S1(=O)OC(c2ccc(O)cc2)(c2ccc(O)cc2)c2ccccc21 [Phenol Red (PR), Phenol Red] | 431 |
| Cc1cc(C2(c3ccc(O)c(C)c3)OS(=O)(=O)c3ccccc32)ccc1O [Cresol Red (CR), Cresol Red] | 430 |
| Cc1c(C2(c3cc(Br)c(O)c(Br)c3C)OS(=O)(=O)c3ccccc32)cc(Br)c(O)c1Br [Bromocresol Green (BrCrG), Bromocresol Green] | 432 |
| Cc1cc(C2(c3cc(C)c(O)c(CN(CC(=O)O)CC(=O)O)c3)OS(=O)(=O)c3ccccc32)cc(CN(CC(=O)O)CC(=O)O)c1O [Xylenol Orange] | 436 |
| O=S1(=O)OC(c2ccc(O)c(Cl)c2)(c2ccc(O)c(Cl)c2)c2ccccc21 [Chlorophenol Red (ClPR), Chlorophenol Red] | 436 |
| O=S1(=O)OC(c2cc(Br)c(O)c(Br)c2)(c2cc(Br)c(O)c(Br)c2)c2ccccc21 [Bromophenol Blue] | 436 |
| Cc1cc(O)ccc1C1(c2ccc(O)cc2C)OS(=O)(=O)c2ccccc21 [m-Cresol Purple (mCrP), m-Cresol Purple] | 432 |
| Cc1cc(C2(c3cc(C)c(O)c(Br)c3)OS(=O)(=O)c3ccccc32)cc(Br)c1O [Bromocresol Purple (BrCrP), Bromocresol Purple] | 432 |
| Cc1c(C2(c3cc(C(C)C)c(O)c(CN(CC(=O)[O-])CC(=O)[O-])c3C)OS(=O)(=O)c3ccccc32)cc(C(C)C)c(O)c1CN(CC(=O)[O-])CC(=O)[O-].[Na+].[Na+].[Na+].[Na+] [Methylthymol Blue] | 442 |
| Cc1c(C2(c3cc(C(C)C)c(O)c(Br)c3C)OS(=O)(=O)c3ccccc32)cc(C(C)C)c(O)c1Br [Bromothymol Blue] | 427 |

----------
Listed compounds paired with reported λ2, nm (SPD^−2 form)
# PROCEDURE_TEXT: SPD derivative UV-Vis spectral and chemical properties (Table 1)
# Assay type: physicochemical
# REPORTED_CONDITIONS: pH sensitive wavelength of SPD^−2

| CPD_SMILES | DISPLAY_UNIT | λ2, nm (SPD^−2 form) |
| --- | --- | --- |
| Cc1c(C2(c3cc(C(C)C)c(O)c(CN(CC(=O)[O-])CC(=O)[O-])c3C)OS(=O)(=O)c3ccccc32)cc(C(C)C)c(O)c1CN(CC(=O)[O-])CC(=O)[O-].[Na+].[Na+].[Na+].[Na+] | nm | 614 |
| Cc1cc(O)ccc1C1(c2ccc(O)cc2C)OS(=O)(=O)c2ccccc21 | nm | 578 |
| O=S1(=O)OC(c2ccc(O)c(Cl)c2)(c2ccc(O)c(Cl)c2)c2ccccc21 | nm | 575 |

----------
Listed molecules paired with reported λ2, nm (SPD^−2 form)
# PROCEDURE_TEXT: SPD derivative UV-Vis spectral and chemical properties (Table 1)
# Type: physicochemical
# REPORTED_CONDITIONS: pH sensitive wavelength of SPD^−2

| CPD_SMILES | λ2, nm (SPD^−2 form) / nm |
| --- | --- |
| O=S1(=O)OC(c2ccc(O)cc2)(c2ccc(O)cc2)c2ccccc21 | 557 |
| O=S1(=O)OC(c2cc(Br)c(O)c(Br)c2)(c2cc(Br)c(O)c(Br)c2)c2ccccc21 | 591 |
| Cc1cc(C2(c3cc(C)c(O)c(Br)c3)OS(=O)(=O)c3ccccc32)cc(Br)c1O | 589 |
| Cc1c(C2(c3cc(C(C)C)c(O)c(Br)c3C)OS(=O)(=O)c3ccccc32)cc(C(C)C)c(O)c1Br | 602 |
| Cc1cc(C2(c3cc(C)c(O)cc3C)OS(=O)(=O)c3ccccc32)c(C)cc1O | 594 |
| Cc1cc(O)c(C(C)C)cc1C1(c2cc(C(C)C)c(O)cc2C)OS(=O)(=O)c2ccccc21 | 595 |
| Cc1cc(C2(c3cc(C)c(O)c(CN(CC(=O)O)CC(=O)O)c3)OS(=O)(=O)c3ccccc32)cc(CN(CC(=O)O)CC(=O)O)c1O | 583 |
